- test-target: H1047R PIK3CA enzyme (Homo sapiens, UniProt P42336, H1047R)
- Sequence (P42336 whole entry H1047R): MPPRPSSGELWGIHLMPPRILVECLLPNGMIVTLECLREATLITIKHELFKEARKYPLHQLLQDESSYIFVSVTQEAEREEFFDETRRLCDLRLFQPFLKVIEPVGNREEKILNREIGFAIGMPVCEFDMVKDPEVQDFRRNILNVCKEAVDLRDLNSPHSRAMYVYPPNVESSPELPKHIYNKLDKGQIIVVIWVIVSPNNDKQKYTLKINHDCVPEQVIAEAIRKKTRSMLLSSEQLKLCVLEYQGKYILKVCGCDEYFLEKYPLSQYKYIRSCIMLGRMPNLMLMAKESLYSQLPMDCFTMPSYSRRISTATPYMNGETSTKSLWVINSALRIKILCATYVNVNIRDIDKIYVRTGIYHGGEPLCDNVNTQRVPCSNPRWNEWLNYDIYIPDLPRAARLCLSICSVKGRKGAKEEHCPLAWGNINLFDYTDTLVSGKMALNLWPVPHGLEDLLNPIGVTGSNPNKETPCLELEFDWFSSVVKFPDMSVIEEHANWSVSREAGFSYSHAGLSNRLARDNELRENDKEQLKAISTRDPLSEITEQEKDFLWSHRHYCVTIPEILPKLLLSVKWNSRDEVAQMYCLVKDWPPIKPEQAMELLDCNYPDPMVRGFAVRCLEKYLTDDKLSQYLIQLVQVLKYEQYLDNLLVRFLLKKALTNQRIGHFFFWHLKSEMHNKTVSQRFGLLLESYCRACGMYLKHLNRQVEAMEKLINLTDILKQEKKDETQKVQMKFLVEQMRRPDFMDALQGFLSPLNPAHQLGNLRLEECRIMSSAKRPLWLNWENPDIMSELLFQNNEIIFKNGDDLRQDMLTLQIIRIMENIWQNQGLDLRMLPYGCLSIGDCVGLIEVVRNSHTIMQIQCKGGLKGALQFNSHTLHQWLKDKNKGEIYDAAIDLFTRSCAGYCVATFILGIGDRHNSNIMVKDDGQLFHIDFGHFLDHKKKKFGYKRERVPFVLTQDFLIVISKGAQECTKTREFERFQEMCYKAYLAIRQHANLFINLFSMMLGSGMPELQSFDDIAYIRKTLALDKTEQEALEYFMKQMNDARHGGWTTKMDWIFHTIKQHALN
- Sequence (P27986 whole entry partner): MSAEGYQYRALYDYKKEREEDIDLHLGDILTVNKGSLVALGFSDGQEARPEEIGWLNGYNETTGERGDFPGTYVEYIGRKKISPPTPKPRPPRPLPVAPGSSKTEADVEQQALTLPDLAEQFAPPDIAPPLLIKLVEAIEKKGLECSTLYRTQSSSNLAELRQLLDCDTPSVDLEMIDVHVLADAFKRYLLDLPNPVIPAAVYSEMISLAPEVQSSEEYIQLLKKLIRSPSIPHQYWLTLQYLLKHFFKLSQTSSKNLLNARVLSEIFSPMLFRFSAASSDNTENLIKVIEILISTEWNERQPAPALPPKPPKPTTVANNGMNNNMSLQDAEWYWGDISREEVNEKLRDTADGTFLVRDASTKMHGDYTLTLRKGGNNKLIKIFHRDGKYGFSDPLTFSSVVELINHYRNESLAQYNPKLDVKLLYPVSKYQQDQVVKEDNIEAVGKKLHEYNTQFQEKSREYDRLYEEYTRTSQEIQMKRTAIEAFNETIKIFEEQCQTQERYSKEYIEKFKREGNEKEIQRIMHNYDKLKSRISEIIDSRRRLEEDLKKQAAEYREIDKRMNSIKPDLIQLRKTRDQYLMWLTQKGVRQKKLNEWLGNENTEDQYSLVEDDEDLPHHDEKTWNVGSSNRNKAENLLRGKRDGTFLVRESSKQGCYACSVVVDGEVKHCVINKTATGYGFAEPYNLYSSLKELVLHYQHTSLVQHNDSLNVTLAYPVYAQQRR
- experimental-protocol: ADP-Glo Biochemical PIK3CA Kinase Assay
- Method: Compounds to be assayed were plated in 16 doses of 1:2 serial dilutions (20 nL volume each well) on a 1536-well plate, and the plate warmed to room temperature. […] To the well was added 1 μL of 200 μM ATP and 20 μM of diC8-PIP2 in Substrate Assay Buffer (50 mM HEPES pH7.4, 50 mM NaCl, 5 mM DTT and 0.03% CHAPS) to start the reaction, and the plate was shaken for 10 seconds, then spun briefly at 1500 rpm, and then incubated for 60 minutes at room temperature. […]
pIC50: −log10 of the molar value.
measurement-label: pIC50

Here are 5 compounds together with their reported answers.
| compound | pIC50 |
| --- | --- |
| O=C(Nc1cc(Br)cc2c1[C@H](c1ccc(F)cc1Cl)NC2=O)c1cc(F)cc(C(F)(F)F)c1 | 6.30 to 7.00 |
| Cc1ccccc1C1NC(=O)c2cccc(NC(=O)c3c[nH]c(=O)c(F)c3)c21 (stereo not shown) | 4.00 to 5.00 |
| O=C1NC(c2cc(F)ccc2Cl)c2c(NC(=O)c3nsc4ccccc34)cccc21 (stereo not shown) | ≥ 7.00 |
| CC(C)(C(=O)Nc1cc(Br)cc2c1C(c1cc(F)ccc1Cl)NC2=O)C(F)(F)F (stereo not shown) | 4.00 to 5.00 |
| O=C1NC(c2cc(F)ccc2Cl)c2c(NC(=O)C3CCCCC3)cc(-c3ccc4ncnn4c3)cc21 (stereo not shown) | 5.00 to 6.00 |

Would you be so kind as to report pIC50 for each listed record?
1. Cc1ccccc1C1NC(=O)c2cccc(NC(=O)c3cnn4ccc(Cl)cc34)c21 (stereo not shown)
2. O=C1N[C@H](c2cc(F)ccc2Cl)c2c(NC(=O)N3C[C@H](O)C[C@@H](C(F)(F)F)C3)cccc21 (single isomer, unassigned)
3. Cn1cc(-c2cc(NC(=O)c3cc(F)cc(C(F)(F)F)c3)c3c(c2)C(=O)N[C@@H]3c2cc(F)ccc2Cl)c(C#N)n1
4. O=C(NCc1ccccc1)c1cc(Br)cc2c1C(c1cc(F)ccc1Cl)NC2=O (stereo not shown)
5. Cn1ccc2cc(-c3cc(NC(=O)c4cc(F)cc(C(F)(F)F)c4)c4c(c3)C(=O)NC4c3cc(F)ccc3Cl)ccc21 (stereo not shown)

[A]
1. 5.00 to 6.00
2. 4.00 to 5.00
3. 4.00 to 5.00
4. 4.00 to 5.00
5. 6.30 to 7.00

# batch size: 2; output pIC50 per entry
1. Cc1ccccc1C1NC(=O)c2nccc(NC(=O)N3CCc4ccncc43)c21 (stereo not shown)
2. O=C1NC(c2cc(F)ccc2Cl)c2c(NC(=O)C3(c4ccccc4)CCCC3)cc(Br)cc21 (stereo not shown)

[A]
4.00 to 5.00
5.00 to 6.00

Quick request: pIC50 for each listed item, please.
1. Cc1c(F)cccc1C1NC(=O)c2cccc(NC(=O)c3nsc4ccccc34)c21 (stereo not shown)
2. O=C(Nc1cc(Nc2ccccc2)cc2c1C(c1cc(F)ccc1Cl)NC2=O)c1cc(F)cc(C(F)(F)F)c1 (stereo not shown)

[A]
1. 6.30 to 7.00
2. ≥ 7.00

# map each compound to its pIC50
1. O=C(Nc1cc(-c2cnc3ncc(Cl)n3c2)cc2c1[C@@H](c1cc(F)ccc1Cl)NC2=O)c1cc(F)cc(C(F)(F)F)c1
2. Cc1nc2ccccn2c1CC(=O)Nc1cc(Br)cc2c1C(c1cc(F)ccc1Cl)NC2=O (stereo not shown)
3. Cn1c(=O)[nH]c2ccc(-c3cc(NC(=O)c4cc(F)cc(C(F)(F)F)c4)c4c(c3)C(=O)NC4c3cc(F)ccc3Cl)cc21 (stereo not shown)
4. O=C1NC(c2cc(F)ccc2Cl)c2c(Cn3ccc4ccccc4c3=O)cc(-c3ccc4ncnn4c3)cc21 (stereo not shown)
5. O=C(NCC(F)F)Nc1cc(NC(=O)c2cc(F)cc(C(F)(F)F)c2)c2c(c1)C(=O)NC2c1cc(F)ccc1Cl (stereo not shown)

[A]
1: 6.00 to 6.30; 2: 4.00 to 5.00; 3: ≥ 7.00; 4: 4.00 to 5.00; 5: ≥ 7.00
